// reported chemical stability in phosphate buffer (pH 7.4) for each item listed
# test.protocol: Chemical stability in phosphate buffer pH 7.4
# Format: physicochemical
# condition.parameters: 1.5 h; 5 μM
Numbers only; they are read as %.

Solved entries (count: 4):
> print(dat)
                           smiles.structure  reported
1  O=C(NCC12C[C@H]3C[C@@H](C1)C[C@@H](C2)C3)Nc1ccc2c(ccn2CCc2ccc(F)cc2)c1      99.6
2  O=C(NCC12C[C@H]3C[C@@H](C1)C[C@@H](C2)C3)Nc1ccc2c(ccn2C(=O)c2ccc(F)cc2)c1      99.8
3  O=C(Nc1ccc2c(c1)CCN2Cc1ccc(F)cc1)NC12C[C@H]3C[C@@H](C1)C[C@@H](C2)C3     100.5
4  O=C(NCC12C[C@H]3C[C@@H](C1)C[C@@H](C2)C3)Nc1ccc2c(ccn2Cc2ccc(F)cc2)c1      98.9

Let us move to another entry and its chemical stability in phosphate buffer (pH 7.4).
Q. // query chemical stability in phosphate buffer (pH 7.4) value for entry "CC(C)c1ccc(Cn2ccc3cc(NC(=O)NCC45C[C@H]6C[C@@H](C4)C[C@@H](C5)C6)ccc32)cc1"
A. 99.7

This collection of values is drawn from paper PMC10350924.
